experiment: Pharmacokinetic test in mice after intragastric administration; assay type: in vivo; conditions: male, mouse, plasma; ICR mice, Oral (10 mg/kg); read-out: Plasma concentration Cmax
MEASURED_PROPERTY: Cmax (ng/mL)

Completed entries (count: 4):
> print(dat)
                                   molecule  observed.result
1  CCc1c(N2CCN(C(=O)c3ncnc(C)c3O)CC2)c(=O)n2nc(-c3ccc4ccoc4c3)nc2n1CC(=O)Nc1ccc(C(F)(F)F)cc1Cl            17300
2  CCc1c(N2CCN(C(=O)c3ncnc(C)c3O)CC2)c(=O)n2nc(-c3ccc4occc4c3)nc2n1CC(=O)Nc1ccc(S(F)(F)(F)(F)F)cc1             9920
3  CCc1c(N2CCN(C(=O)c3ncnc(C)c3O)CC2)c(=O)n2nc(-c3cc4ccccc4s3)nc2n1CC(=O)Nc1ccc(C(F)(F)F)cc1Cl            19800
4  CCc1c(N2CCN(C(=O)c3ncnc(C)c3O)CC2)c(=O)n2nc(C3=CCOCC3)nc2n1CC(=O)Nc1ccc(C(F)(F)F)cc1Cl [HRO761, reference compound]             7010

a. CCc1c(N2CCN(C(=O)c3ncnc(C)c3O)CC2)c(=O)n2nc(-c3ccc4occc4c3)nc2n1CC(=O)Nc1ccc(C(F)(F)F)cc1Cl
b. CCc1c(N2CCN(C(=O)c3ncnc(C)c3O)CC2)c(=O)n2nc(-c3ccc4c(ccn4C)c3)nc2n1CC(=O)Nc1ccc(C(F)(F)F)cc1Cl
Which gives the smaller Cmax number: a or b ? Which one? Tell me its label.
b
